molecular target: Vitamin D3 receptor (Homo sapiens); assay: qHTS assay to identify small molecule agonists of the vitamin D receptor (VDR) signaling pathway (AID 743222); details: HEK293T VDR-UAS-bla, beta-lactamase FRET ratio, 16 h; series mostly up to 63.5 µM
Results filed as inconclusive are left out. The source made the active and inactive calls. The call rests on the fitted dose curve.
measurementType: outcome

Inquiry: Which outcome reading was recorded for the compound "CC[C@H]1CN2CCc3cc(OC)c(OC)cc3[C@@H]2C[C@@H]1C[C@H]1NCCc2cc(OC)c(OC)cc21" ?
Reply text: inactive

Inquiry: Now the compound C=C(C)C1CC=C(C)C(OC(C)=O)C1 (stereo not drawn)
Reply text: inactive

Inquiry: Now the compound "Cc1cccc2n[nH]nc12"
Reply text: inactive

Inquiry: Now the compound "CCCCN(CCO)CCCC"
Reply text: inactive

Inquiry: Now the compound "CC(=O)N[C@@H](CS)C(=O)O"
Reply text: inactive

Inquiry: Now the compound O=c1n(CC2CO2)c(=O)n(CC2CO2)c(=O)n1CC1CO1 (stereo not drawn)
Reply text: inactive

Inquiry: Now the compound CCCCC/C=C/CC1CC(=O)OC1=O (stereo not drawn)
Reply text: inactive

Inquiry: Now the compound "CC[C@@H](N)CO"
Reply text: inactive

Inquiry: Now the compound C#CC(C)(CC)OC(=O)c1ccccc1C(=O)O (stereo not drawn)
Reply text: inactive

Inquiry: Now the compound "CC(C)CCCCCCc1ccc(O)cc1"
Reply text: inactive

Next:
Inquiry: Which outcome reading was recorded for the compound "CCCOC(=O)c1cc(O)c(O)c(O)c1" ?
Reply text: inactive

Inquiry: Now the compound "N[C@@H]1CONC1=O"
Reply text: inactive

Inquiry: Now the compound "Cc1cccc(O)c1C"
Reply text: inactive

Inquiry: Now the compound CC1COc2c(N3CCN(C)CC3)c(F)cc3c(=O)c(C(=O)O)cn1c23 (stereo not drawn)
Reply text: inactive

Inquiry: Now the compound "Oc1ccc(Cl)cc1Cc1cc(Cl)ccc1O"
Reply text: inactive

Inquiry: Now the compound "O=C(O[C@@H]1Cc2c(O)cc(O)cc2O[C@@H]1c1cc(O)c(O)c(O)c1)c1cc(O)c(O)c(O)c1"
Reply text: inactive
